Hey, just so you know, these numbers are from patent US20050222266A1.

# Experiment Summary: rotarod test, mice
# Cond: mouse, in vivo, oral administration, 15 min before test
Structures can show the parent of a compound that is named as a salt.
Readout Kind: TD50 at 15 min (mg/kg)
One number for each entry, in mg/kg.

(Q) Using the record for NC(=O)CNC1Cc2ccccc2C1 [CHF 3381, N-2(indanyl)-glicinamide hydrochloride] , report its TD50 at 15 min.
(A) 233

* * *

# Experiment Summary: rotarod test, mice
# Cond: mouse, in vivo, ip, i.p. administration, 15 min before test
Structures can show the parent of a compound that is named as a salt.
Readout Kind: TD50 at 15 min (mg/kg)
Give bare numbers, in mg/kg.

(Q) Using the record for NC(=O)CNC1Cc2ccccc2C1 [CHF 3381, N-2(indanyl)-glicinamide hydrochloride] , report its TD50 at 15 min.
(A) 96
